The measured values listed here are drawn from PubChem BioAssay (NCI).

system: SN12C renal; test: NCI-60 one-dose screen, 48 h (100 = growth as untreated, 0 = no growth, -100 = all killed); conditions: 10 µM unless noted
This is part of a sample that, as a whole, favours compounds with a hit. Of some 83,000 tested, about 20% had one in any assay. Activity calls are given as the source filed them. How the source made its calls: active means growth percent below 10; inactive means the rest.
measure: growth

* CCCSC1=NC2C(N(CC)C(=O)N2CC)N1/N=C/C=C/c1ccccc1[N+](=O)[O-] (stereo not drawn) | 40.6% (inactive)
* O=C1c2cc(Br)ccc2Oc2cc([N+](=O)[O-])ccc2N1c1ccc(I)cc1F | 94.2% (inactive)
* COc1cccc(-c2nn(C)c3sc(C(=O)NCCN4CCN(c5ccccc5F)CC4)cc23)c1 | 60.9% (inactive)
* COc1ccc(/C=C2\N=C(c3ccccc3)N(c3ccc(-c4nc5ccc(C)cc5s4)cc3)C2=O)cc1 | 64.3% (inactive)
* Cc1ccc(S(=O)(=O)c2c(COC(=O)c3cccc(C)c3)c(-c3ccccc3)nn2C)cc1 | 89.1% (inactive)
* O=c1oc2ccc(F)cc2c(=O)n1-c1ccc(Br)cc1F | -4.08% (active)
* O=c1oc2ccc(Br)cc2c(=O)n1-c1ccc(I)cc1F | -1.37% (active)
* CC[C@]1(O)C[C@@H]2CN(CCc3c([nH]c4ccccc34)[C@@](C(=O)OC)(c3cc4c(cc3OC)N(C)[C@H]3[C@@](O)(C(=O)OC)[C@H](OC(=O)CCCBr)[C@]5(CC)C=CCN6CC[C@]43[C@@H]65)C2)C1 | 23.9% (inactive)

###

system: CAKI-1 renal; test: NCI-60 one-dose screen, 48 h; conditions: 10 µM unless noted
Compounds without any hit were thinned out: in the full panel of roughly 83,000, 20% have a hit. Calls of active or inactive are those of the source. Rule for the calls: active = growth percent below 10; inactive = the rest.
Outcomes: T = active, F = inactive

- O=c1oc2ccc(-c3ccc(F)cc3F)cc2c(=O)n1-c1ccc(Cl)c(C(F)(F)F)c1: T
- COc1ccc(-c2nsc3c2NC(=O)CC3c2ccc3c(c2)OCCO3)cc1 (stereo not given): F
- COc1cccc(C2=NN3C(C2)c2ccccc2OC3c2ccc(/C=C3\SC(=O)NC3=O)cc2)c1 (stereo not given): F
- CCN1C(=O)N(CC)C2Nn3c(s/c(=C\c4ccccc4F)c3=O)=NC21 (stereo not given): F
- O=C(CCc1nnc2sc(COc3ccccc3)nn12)c1nc2ncccc2[nH]1: F
- N#CC(C#N)=Cc1c(-c2ccccc2)[nH]c2ccccc12: F
- COc1cc(CNC(=O)c2ccsc2Nc2ccnc(C(F)(F)F)c2)ccc1O: F
- Cc1cc2c(c(C)c1Cl)C(=O)/C(=C/c1cccc([N+](=O)[O-])c1)O2: F
- CCOC(=O)c1cnc2c(C)cccc2c1Nc1ccc(C(C)=O)cc1: F
- CCOc1ccc(Nc2ccnc3cc(Cl)ccc23)cc1: T

###

test system: HCC-2998 colon; test: NCI-60 one-dose screen, 48 h; conditions: 10 µM unless noted
This is part of a sample that, as a whole, favours compounds with a hit. Of some 83,000 tested, about 20% had one in any assay. Activity calls are given as the source filed them. How the source made its calls: active means growth percent below 10; inactive means the rest.
Classes used: Y = active, N = inactive

• O=c1c2cccc(F)c2sc2c(N3CCNCC3)nc3ccccc3c12 = Y
• CN1CCN(Cc2ccc(C(=O)Nc3cncc(C#Cc4cnc5cccnn45)c3)cc2C(F)(F)F)CC1 = N
• O=C1/C(=C/c2ccc(O)cc2)COc2ccc(O)cc21 = N
• COc1ccc(-c2cc(=O)c3c(OC)c4ccoc4c(/C=C/C=O)c3o2)cc1 = N
• O=C(c1ccccc1)N(C(=S)NCCc1ccc(Cl)cc1)c1ccccc1 = N
• O=C(Nc1ccc(Cl)cc1F)c1cc(Br)ccc1O = N
• CCCCN1CCN(c2ccc3nc(-c4ccc5nc(-c6ccc(OC)c(OC)c6)[nH]c5c4)[nH]c3c2)CC1 = Y
• C=C[C@@H]1CCC/C=C/[C@@H]2C[C@H](O)C[C@H]2[C@H](O)/C=C/C(=O)O1 = Y
• O=NN(Cc1cccnc1)C(=O)NC1CCCCC1 = N
• O=C(Nc1ccc(N2CCNCC2)cn1)c1[nH]ncc1Nc1ncnc2sc3c(c12)CCC3 = N
• Cc1ccc(F)cc1NC(=O)c1cc(Cl)ccc1Nc1ccccc1 = N
• COc1cc(/C=C2\CCC/C(=C\c3cc(CN4CCOCC4)c(O)c(OC)c3)C2=O)cc(CN2CCOCC2)c1O = N
• COc1ccc(N2C(=O)CC(c3cc(OC)c(OC)c(OC)c3)C3C2=NC(=O)N3C)cc1 (stereo unspecified) = N
• COc1ccc(C2c3ccc4ccccc4c3Oc3ncn(CCCn4ccnc4)c(=N)c32)cc1OC (stereo unspecified) = N
• NCCOc1ccccc1/C=C1\c2ccccc2-c2ccc([N+](=O)[O-])cc21 = Y
• O=C(CN1C=NC2C(N3CCOCC3)=NC=NC21)c1cccc2ccccc12 (stereo unspecified) = N
• CC(C)C[C@H](C(=O)N[C@H](C(N)=O)C(C)C)N1CC=CCN(OCc2ccccc2)S1(=O)=O = N
• COc1ccc(-c2cn[nH]c2-c2ccc(OC)c(O)c2)cc1 = N
• CCOc1ccc(Nc2ccnc3cc(Cl)ccc23)cc1 = N
• NC(=O)CSc1nc(-c2ccc(F)cc2)cc(-c2ccco2)n1 = N
• O=c1cc(NC2CCN(CCCc3ccccc3)CC2)c2cc(Cl)ccc2o1 = Y
• CC(=O)c1ccc(Nc2nc(NCCO)nc(Nc3ccc(Cl)cc3)n2)cc1 = N
• CC(=O)Nc1nc2c(s1)CCc1c-2cn(S(=O)(=O)c2ccccc2)c1-c1ccccc1 = N
• CCN1C(=O)N(CC)C2Nn3c(s/c(=C4\C(=O)N(C(C)C)c5ccccc54)c3=O)=NC21 (stereo unspecified) = N
• COc1ccc(C(=O)Nc2ccc3nc(N4CCCCC4)cc(C)c3c2)cc1OC = N
• Cc1cccc(NC(=O)c2sc3nc4c(cc3c2N)CCCC4)c1C = N
• O=C(Nc1ncc(Cc2cccc(C(F)(F)F)c2)s1)C1COc2ccccc2O1 (stereo unspecified) = N
• Cc1ccc(S(=O)c2ccc([N+](=O)[O-])c3nonc23)cc1 (stereo unspecified) = N
• FC(F)(F)c1cccc(Nc2nc3ccccc3nc2Nc2cccc(C(F)(F)F)c2)c1 = Y
• O=C(NCCCN1CCC(N2CCCCC2)CC1)C1=Cc2cc(Br)ccc2OC1 = N
• CCOC(=O)C1=C(C)N=c2s/c(=C\c3cc(Cl)ccc3O)c(=O)n2C1c1ccc(OC)cc1 (stereo unspecified) = N
• COC(=O)[C@H](NC(=O)C1(C)CCC[C@]2(C)[C@H]3C[C@H]4C(C(C)C)=C[C@]3(CC[C@@H]12)[C@@H]1C(=O)CCC(=O)[C@@H]14)C(C)C (stereo partly specified) = N
• COc1ccccc1N1C(=N)S/C(=C\c2ccc(OCc3ccccc3F)cc2)C1=O = N
• COc1ccc(-c2cn[nH]c2-c2cc(OC)c(OC)c(OC)c2)cc1OCc1ccccc1 = N
• CCOC(=O)c1cc2c(n1Cc1cc(OC)c(OC)c(OC)c1)-c1oncc1CCC2 = N
• CC1=C(C(=O)OCC2CCN(C(=O)OC(C)(C)C)CC2)[C@@H](c2cccc(C#N)c2)C2=C(CC(C)(C)CC2=O)N1 = N
• COc1cc(C#N)cc2[nH]c(=O)oc12 = N
• O=C(Nc1ccc(Br)cc1F)c1cc(I)ccc1O = N
• CCCC(=O)CC(C)=O.CCCC(=O)CC(C)=O.[Cu] = N
• Oc1[nH]c2ccccc2c1N=Nc1nnc2n1N=C(c1ccccc1)CS2 = N
• O=C(c1ccccc1)N(CCc1ccc(Cl)cc1)C(=S)N(C(=O)c1ccccc1)c1ccccc1 = N
